- ASSAY_OVERVIEW: Nonperfused brain (NPB) kinetics of phenolic metabolites after oral capsule
- Type: in vivo, Sprague–Dawley rats
- TEST_PARAMETERS: male, Sprague-Dawley, rat, 22 mg extract blend per capsule, one capsule per animal; nonperfused brain, oral capsule, 0-24 h, n = 3 per time point
- From the text: Statistical analyses were applied depending on the experimental context.
READOUT: Tmax (h)

# MOLECULE, Tmax, h
rows = [
    ("O=C(O)CCCCc1cccc(O)c1 [5-(3-hydroxyphenyl)-valeric acid]", 2.3),
    ("O=C(O)CCc1ccc(O)c(O)c1 [dihydrocaffeic acid]", 24),
    ("O=C(O)CCc1ccccc1O [3-(2-hydroxyphenyl) propionic acid]", 3.3),
    ("O=c1oc2c(O)c(O)cc3c(=O)oc4c(O)c(O)cc1c4c23", 15),
    ("O=C(O)c1ccc(O)cc1O [2,4-dihydroxybenzoic acid]", 14),
]

a: O=S(=O)(O)Oc1cc(O)cc(C=Cc2ccc(O)cc2)c1 [resveratrol 3-O-sulfate]
b: O=C(O)CCc1cccc(O)c1 [3-(3-hydroxyphenyl) propionic acid]
Select one. Lower Tmax: a or b Answer = label.
b
(b: 7.5 h, a: 15 h)
